Test system: LXFL 529
Test: NCI tumour cell line growth inhibition, 48 h
Activity calls are given as the source filed them. Cut-off read from the data, not from the text of the source: active = GI50 up to about 1.1 µM and inactive = higher.
READOUT_LABEL: GI50

Please review the following examples before continuing.
Cc1ccc(C)c(NC(=O)CC2C(=O)Nc3ccccc3S2(=O)=O)c1 (configuration not stated)	> 100 µM (inactive)
CCCCCCCCCCCC[N+]12CC[N+](CCN)(CC1)CC2	81.7 µM (inactive)
C/N=C(\NC(=S)N(C)C)N(C)C	> 100 µM (inactive)

Input: Returns the measured GI50 for the input compound. Input: Cc1cc(C)c(S(=O)(=O)ONC(=O)OC(C)(C)C)c(C)c1
Output: > 100 µM (inactive)

Input: Which GI50 reading was recorded for the compound CCS(CC)(CC)CC1CCCC2=CCC(P(=O)(c3ccccc3)c3ccccc3)CC21 (configuration not stated) ?
Output: 9.64 µM (inactive)

Input: Bench note: what GI50 did Oc1cc(CN2CCOCCOCCOCCOCC2)c(O)cc1CN1CCOCCOCCOCCOCC1 show?
Output: 21.1 µM (inactive)
